EXPERIMENT DESCRIPTION: NCI Yeast Anticancer Drug Screen. Data for the rad50 strain (AID 155);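 further: 0% = growth of vehicle-only cultures of the same strain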
ASSAY SETUP: S. cerevisiae rad50 strain growth inhibition, stronger effect = higher value; at 50.0 µM unless noted
The panel holds about 79,000 compounds, 15% with a hit somewhere; the sample as a whole holds those more often.
Consider the following compounds; for each one, report its growth inhibition.
Note: unit % is implicit; provide only the numeric part.

Fill in the blank: the reported growth inhibition of `CCCCCCCCCCCCCCCCCCOc1ccccn1` is ____. -9.8

Fill in the blank: the reported growth inhibition of `CCS(=O)(=O)C(CCCl)S(=O)(=O)CC` is ____. 2.45

Fill in the blank: the reported growth inhibition of `CCCCCCCCCCCCSC(=S)c1c(C)[nH]n(CCCCCCCCCCCC)c1=O` is ____. 39.9

Fill in the blank: the reported growth inhibition of `CN(C=O)c1c(F)cc(N=Nc2ccccc2)cc1F` is ____. 2.8

Fill in the blank: the reported growth inhibition of `Cc1c(C)c(C)c(CCc2c(C)c(C)c(C)c(C)c2C)c(C)c1C` is ____. -16.8

Fill in the blank: the reported growth inhibition of `CCn1c(CCCc2nc3c([nH]2)c(=O)n(C)c(=O)n3C)nc2c1c(=O)n(C)c(=O)n2C` is ____. 6.65

Fill in the blank: the reported growth inhibition of C[C@@]1(O)C2CC3CC1(c1ccccc1)CC(/C3=N/O)/C2=N\O (stereo not given in full) is ____. -14.3

Fill in the blank: the reported growth inhibition of `CCOC(=O)/C(Cc1ccc2ccccc2n1)=N/O` is ____. -6.35

Fill in the blank: the reported growth inhibition of `Cc1ccc([N+](=O)[O-])cc1NC(=O)N(Cc1ccccc1)Cc1ccccc1` is ____. 8.7

Fill in the blank: the reported growth inhibition of `BrC(Br)(Br)Br` is ____. 74

---

EXPERIMENT DESCRIPTION: NCI Yeast Anticancer Drug Screen. Data for the bub3 strain (AID 167)
ASSAY SETUP: S. cerevisiae bub3 mutant strain, stronger effect = higher value; at 50.0 µM unless noted
This is part of a sample that, as a whole, favours compounds with a hit. Of some 79,000 tested, about 15% had one in any assay.
ENDPOINT: growth inhibition (%)
Note: unit % is implicit; provide only the numeric part.

Fill in the blank: the reported growth inhibition of COC(=O)C(=O)C1CCCC(C)(c2ccccc2)C1 (configuration not stated) is ____. 1.7

Fill in the blank: the reported growth inhibition of `CC(=O)Oc1ccc(Cc2ccccc2)cc1` is ____. 32.9

Fill in the blank: the reported growth inhibition of O=C1NC2OCC(O)C(O)C2O1 (configuration not stated) is ____. 22.4

Fill in the blank: the reported growth inhibition of `CCOC(=O)c1ccc(NC(=O)Nc2ccc(F)cc2)cc1` is ____. 32.5

Fill in the blank: the reported growth inhibition of CC(=O)C(C)(CCN(C)C)c1ccccc1 (configuration not stated) is ____. 6.55

Fill in the blank: the reported growth inhibition of `CCOc1ccc(F)cc1` is ____. 6.3

Fill in the blank: the reported growth inhibition of `Cc1ncc(CO)c(CO)c1O` is ____. 7

Fill in the blank: the reported growth inhibition of `COc1ccc2oc3c(OC)c(OC)c(OC)cc3c(=O)c2c1` is ____. 12.6

Fill in the blank: the reported growth inhibition of `CC(=O)C[N+](C)(C)C` is ____. -20.8

Fill in the blank: the reported growth inhibition of CCC(C)C(NC(=O)C1CSC(C)(C)N1C=O)C(=O)OC1CCCCC1 (configuration not stated) is ____. -4.9

Fill in the blank: the reported growth inhibition of CCC1CC(=O)c2ccccc2O1 (configuration not stated) is ____. 5.4

Fill in the blank: the reported growth inhibition of `Cc1ccc(S(=O)(=O)c2c3[nH]c4ccccc4nc3n3c2nc2ccccc23)cc1` is ____. -26.8

---

EXPERIMENT DESCRIPTION: NCI Yeast Anticancer Drug Screen. Data for the rad50 strain (AID 155);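 further: 0% = growth of vehicle-only cultures of the same strain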
ASSAY SETUP: S. cerevisiae rad50 strain growth inhibition, stronger effect = higher value; at 50.0 µM unless noted
Compounds without any hit were thinned out: in the full panel of roughly 79,000, 15% have a hit.
ENDPOINT: growth inhibition (%)
Note: unit % is implicit; provide only the numeric part.

Fill in the blank: the reported growth inhibition of `O=C(O)CCC(=O)CCC(=O)O` is ____. 13.7

Fill in the blank: the reported growth inhibition of `O=C(O)c1cccc(C(=O)O)c1Sc1ccccc1` is ____. 1.9

Fill in the blank: the reported growth inhibition of `Nc1nnc2nc(C(C(=O)c3ccc(F)cc3)c3nc4nnc(N)n4[nH]c3=O)c(=O)[nH]n12` is ____. 15.1

Fill in the blank: the reported growth inhibition of Cc1ccc(N2CC(=O)N3CCCC(C)N3C(=O)C2)cc1 (configuration not stated) is ____. 26

Fill in the blank: the reported growth inhibition of `CCOP(=O)(OCC)/C(=C/n1c(=S)[nH]c2ccccc21)C(=O)OC` is ____. -29.8

Fill in the blank: the reported growth inhibition of COc1cc(CC(C(=O)O)C(C)C(=O)c2ccc3c(c2)OCO3)cc(OC)c1OC (configuration not stated) is ____. -4.75

Fill in the blank: the reported growth inhibition of `Cn1c(=O)c(C(=O)Nc2nc(C34CC5CC(CC(C5)C3)C4)cs2)c(O)c2ccccc21` is ____. -27.8

---

EXPERIMENT DESCRIPTION: NCI Yeast Anticancer Drug Screen. Data for the sgs1 mgt1 strain (AID 161);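 further: 0% = growth of cultures given vehicle only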
ASSAY SETUP: S. cerevisiae sgs1 mgt1 strain; at 50.0 µM unless noted
About 79,000 compounds went through this panel and 15% of them were active in at least one assay; those are over-represented in the sample as a whole. Calls of active or inactive are those of the source. Cut-off read from the data, not from the text of the source: active = growth inhibition above about 70%; inactive = the rest.
Bench note: report the call from YES for active, NO for inactive

Recorded call for `Cc1noc(NC(=O)Nc2ccccc2F)c1C#N` ? NO

Recorded call for `Oc1cc(Cl)cc2cccnc12` ? YES

Recorded call for COc1ccc(C2Oc3cc(OC)c(O)cc3[C@@H]2C)cc1 (stereo partly specified) ? NO

Recorded call for COC(=O)C(Cc1nc2ccc(Cl)cc2[nH]c1=O)/C(=N\N)C(=O)Nc1cc(C)c(Cl)cc1S(=O)(=O)O (stereo unspecified) ? NO

Recorded call for NC(C=O)C(O)C(O)C(O)CO (stereo unspecified) ? NO

Recorded call for CN(C)C(CCC(=O)NC(C)(C)C)CC(=O)NC(C)(C)C (stereo unspecified) ? NO

Recorded call for `O=S(=O)(NCCSSCCNS(=O)(=O)c1ccccc1)c1ccccc1` ? NO

Recorded call for CCCSCCC(NC(=O)c1ccccc1)C(=O)O (stereo unspecified) ? NO

Recorded call for `S=C(Nc1ccc2c(c1)oc1ccccc12)c1cccs1` ? NO

Recorded call for `Cc1ccc(NC(=O)ON(C)C)cc1` ? NO

Recorded call for `O=c1[nH]cnc2c1ccc1[nH]ncc12` ? NO

Recorded call for `Fc1c(F)c(-c2c(F)c(F)c(S)c(F)c2F)c(F)c(F)c1S` ? NO

Recorded call for `COc1cccc(/C=C/c2ccnnc2)c1` ? NO

Recorded call for `CCOC(=O)C(CCc1ccccc1[N+](=O)[O-])(CCc1ccccc1[N+](=O)[O-])C(=O)OCC` ? NO

Recorded call for `CC(=O)Oc1ccc2c(c1)CCC2` ? NO

Recorded call for `O=C(CCc1ccccc1)On1nnc2ccccc2c1=O` ? NO

---

EXPERIMENT DESCRIPTION: NCI Yeast Anticancer Drug Screen. Data for the mlh1 rad18 strain (AID 175)
ASSAY SETUP: S. cerevisiae mlh1 rad18 strain growth inhibition, stronger effect = higher value; at 50.0 µM unless noted
The panel holds about 79,000 compounds, 15% with a hit somewhere; the sample as a whole holds those more often.
Consider the following molecules; for each one, report its growth inhibition.
Note: unit % is implicit; provide only the numeric part.

Fill in the blank: the reported growth inhibition of `N=C(N)SCc1ccc(Oc2ccc(CSC(=N)N)cc2)cc1` is ____. 15.3

Fill in the blank: the reported growth inhibition of `O=c1c2ccccc2c(=O)n2n1-c1cccc(c1)CSSCc1cccc-2c1` is ____. -12.8

Fill in the blank: the reported growth inhibition of CN1C(=O)N(C)C2(O)c3ccccc3C(=O)C12O (stereo not drawn) is ____. 38.9

Fill in the blank: the reported growth inhibition of CC(=O)Nc1ccn(C2OC(CO)C(O)C2O)c(=O)n1 (stereo not drawn) is ____. 8.3

Fill in the blank: the reported growth inhibition of `C=CC(=O)Nc1ccccc1` is ____. 5.55

Fill in the blank: the reported growth inhibition of CN1N=C(c2ccncc2)OC1c1cccc(C(F)(F)F)c1 (stereo not drawn) is ____. -21.3

Fill in the blank: the reported growth inhibition of `Nc1c(I)cc(I)c(C(=O)O)c1I` is ____. -39.1

Fill in the blank: the reported growth inhibition of `Cc1cc[nH]c(=O)c1[N+](=O)[O-]` is ____. 2.65

Fill in the blank: the reported growth inhibition of COc1cc(CC(C(=O)O)C(C)C(=O)c2ccc3c(c2)OCO3)cc(OC)c1OC (stereo not drawn) is ____. -15.8

Fill in the blank: the reported growth inhibition of O=CC(CO)C(C=O)n1ncc2ccccc21 (stereo not drawn) is ____. 30.8

Fill in the blank: the reported growth inhibition of `COc1ccc(C=O)c(Cl)c1OC` is ____. -16.8

Fill in the blank: the reported growth inhibition of `O=C1C2(c3ccccc3)CCC1(c1ccccc1)C(c1ccccc1)=C2c1ccccc1` is ____. 37.5

Fill in the blank: the reported growth inhibition of `COc1cc(CNc2ccccc2)ccc1O` is ____. -8.4

Fill in the blank: the reported growth inhibition of CC(C)=CC1(C)/C(=N\O)C(C)(CC(C)C)C(=O)N1O (stereo not drawn) is ____. -19.4

Fill in the blank: the reported growth inhibition of `COc1ccc(C2NC3=C(CCCC3)N2)cc1` is ____. 32.9

Fill in the blank: the reported growth inhibition of O=C1c2ccccc2CC(c2ccccc2)N1c1ccccc1 (stereo not drawn) is ____. 32.1

Fill in the blank: the reported growth inhibition of O=C(Cc1ccccc1)N/N=C(/c1nc2ccc([N+](=O)[O-])cc2[nH]c1=O)C(O)c1ccccc1Cl (stereo not drawn) is ____. 16.1

Fill in the blank: the reported growth inhibition of `OCc1ccccc1Sc1ccccc1CO` is ____. 24

Fill in the blank: the reported growth inhibition of CC(C)(C)OC(=O)NCCCCC(N)C(N)=O (stereo not drawn) is ____. -1.95

Fill in the blank: the reported growth inhibition of `CC(C)COC(=O)/C=C/c1ccccc1` is ____. 11.6

Fill in the blank: the reported growth inhibition of `CCOC(=O)C(SC(S(=O)(=O)c1ccccc1)S(=O)(=O)c1ccccc1)C(=O)OCC` is ____. 25.6

Fill in the blank: the reported growth inhibition of CC1(C)OCC(N)[C@@H](O)CO1 (stereo partly drawn) is ____. -0.65

Fill in the blank: the reported growth inhibition of `O=C(O)/C=C/c1cccc(F)c1` is ____. 10.2

Fill in the blank: the reported growth inhibition of `C1CSCCSCCS1` is ____. -4.9

Fill in the blank: the reported growth inhibition of `COc1cccc(C#CC(=O)O)c1` is ____. -11.6

Fill in the blank: the reported growth inhibition of C=CC[N+]1(CCOC(=O)C(c2ccccc2)C2C=CCC2)CCCC1 (stereo not drawn) is ____. -22.4

Fill in the blank: the reported growth inhibition of `COc1ccc(/C(C)=C\C(=O)O)c(O)c1OC` is ____. 7.8

Fill in the blank: the reported growth inhibition of `CCCCCCCCCCCCCOc1ccc(S(=O)(=O)/N=C(\N)NC(N)=NCCCCCCCCCCCC)cc1` is ____. 8.05

Fill in the blank: the reported growth inhibition of `c1ccc(CN(Cn2cccn2)Cn2cccn2)nc1` is ____. 34.8

Fill in the blank: the reported growth inhibition of `O=[N+]([O-])c1cccnc1S(=O)(=O)c1ccccc1` is ____. -0.15

Fill in the blank: the reported growth inhibition of N[N+]#COC1C(C(=O)NN)C1C(=O)NN (stereo not drawn) is ____. -17.9

Fill in the blank: the reported growth inhibition of `Clc1ccc2c(c1)C(=P(c1ccccc1)(c1ccccc1)c1ccccc1)c1cc(Cl)cc(Cl)c1-2` is ____. 64.6

Fill in the blank: the reported growth inhibition of `CC(=O)N1C=CC(=Cc2ccccc2)C=C1` is ____. 3.95

Fill in the blank: the reported growth inhibition of `CCN(CC)N=Nc1ccc(C(=O)O)cc1` is ____. -2

Fill in the blank: the reported growth inhibition of COC(=O)C(=O)C(C(=O)C=C(C)C)C(=O)C(=O)Nc1ccc(C)cc1C (stereo not drawn) is ____. -29.6

Fill in the blank: the reported growth inhibition of `Cc1nc(C(Cl)(Cl)Cl)[nH]c(=O)c1SCCO` is ____. -6.35

Fill in the blank: the reported growth inhibition of Cc1ccc([N+](=O)[O-])cc1NC(=O)/C(=N/NC(=S)NN)C1SC(=S)NC1=O (stereo not drawn) is ____. -8.75

Fill in the blank: the reported growth inhibition of `CCCCCCCCCCCCCCCC[N+](C)(C)CC#N` is ____. 99.5
